Exercise: state measured pKi for each of the compounds provided.
- assayed.system: Bcl-2-like protein 2 (Homo sapiens)
- Sequence (Q92843 whole entry): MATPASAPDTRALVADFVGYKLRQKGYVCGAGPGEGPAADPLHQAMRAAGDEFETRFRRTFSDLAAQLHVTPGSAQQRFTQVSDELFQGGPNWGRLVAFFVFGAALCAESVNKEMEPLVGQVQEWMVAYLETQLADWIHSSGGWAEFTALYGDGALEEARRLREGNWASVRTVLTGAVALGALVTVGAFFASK
- assay.overview: Displacement of Flu-Bak peptide from recombinant antiapoptotic Bcl-w protein by fluorescence polarization assay
In textbook form, pKi equals minus log to base ten of the concentration in mol/L.

// query Entry under review: O=C(O)[C@H](Cc1c[nH]c2ccccc12)N1C(=O)/C(=C/c2ccc(Br)cc2)SC1=S . Reported pKi?
// result 4.27

// query Entry under review: COc1ccc2c(c[n+](C)c3c4cc5c(cc4ccc23)OCO5)c1OC [CHELERYTHRINE CHLORIDE] . Reported pKi?
// result 3.97

// query Entry under review: C[C@@H](C(=O)N1CCOCC1)N1C(=O)/C(=C/c2ccc(Br)cc2)SC1=S . Reported pKi?
// result 3.84

// query Entry under review: C=CCOC(=O)[C@H](Cc1ccccc1)N1C(=O)/C(=C/c2ccc(Br)cc2)SC1=S . Reported pKi?
// result 4.25

// query Entry under review: O=C(O)CC[C@@H](C(=O)O)N1C(=O)/C(=C/c2ccc(Br)cc2)SC1=S . Reported pKi?
// result 3.21

// query Entry under review: C[C@@H](C(=O)O)N1C(=O)/C(=C/c2ccc(Br)cc2)SC1=S . Reported pKi?
// result 3.61

// query Entry under review: CC(C)C(C(=O)O)N1C(=O)/C(=C\c2ccc(Br)cc2)SC1=S (centres undefined) . Reported pKi?
// result 3.91

// query Entry under review: CC(C)C[C@@H](C(=O)O)N1C(=O)/C(=C(\c2ccccc2)c2ccc(-c3ccccc3)cc2)SC1=S . Reported pKi?
// result 5.16

// query Entry under review: CCC/C(=C1/SC(=S)N([C@@H](Cc2ccccc2)C(=O)O)C1=O)c1ccccc1 . Reported pKi?
// result 4.39

// query Entry under review: C/C(=C1/SC(=S)N([C@@H](CC(C)C)C(=O)O)C1=O)c1ccccc1 . Reported pKi?
// result 4.23

// query Entry under review: Cc1cc2c(C(C)C)c(O)c(O)c(C=O)c2c(O)c1-c1c(C)cc2c(C(C)C)c(O)c(O)c(C=O)c2c1O [GOSSYPOL] . Reported pKi?
// result 4.75

// query Entry under review: CC(C)C[C@@H](C(=O)O)N1C(=O)/C(=C/c2ccc(Br)cc2)SC1=S . Reported pKi?
// result 4.51

// query Entry under review: CSCC[C@@H](C(=O)O)N1C(=O)/C(=C/c2ccc(Br)cc2)SC1=S . Reported pKi?
// result 4.06

// query Entry under review: O=C(O)[C@H](Cc1ccccc1)N1C(=O)/C(=C/c2ccc(Br)cc2)SC1=S . Reported pKi?
// result 4.67

// query Entry under review: CCC/C(=C1/SC(=S)N([C@@H](CC(C)C)C(=O)O)C1=O)c1ccccc1 . Reported pKi?
// result 4.62

// query Entry under review: CC(C)C[C@@H](C(=O)O)N1C(=O)C(=C(c2ccccc2)c2ccccc2)SC1=S . Reported pKi?
// result 4.21

// query Entry under review: C=CCOC(=O)[C@H](Cc1ccccc1)N1C(=O)C(=C(c2ccccc2)c2ccccc2)SC1=S . Reported pKi?
// result 3.94

// query Entry under review: CCCC[C@H]1C(=O)O[C@H](C)[C@H](NC(=O)c2cccc(NC=O)c2O)C(=O)O[C@@H](C)[C@@H]1OC(=O)CC(C)C [ANTIMYCIN A3] . Reported pKi?
// result 3.90
